Values compiled from paper doi:10.1101/2022.09.01.506260.

# studySystem: CrkII NSH3 domain (CrkII^NSH3) (human, UniProt P46108-1 134-191)
# Sequence (P46108 134-191): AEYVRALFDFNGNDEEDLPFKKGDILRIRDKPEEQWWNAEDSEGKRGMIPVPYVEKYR
# testSummary: SPR
reportedProperty: pKd
As a rule, pKd stands for the negative log10 of the concentration, concentration in M.

binder	pKd
Ac-FSPPPPPPKSRHL-NH2 [PEAK2 709-721 proline-rich motif peptide]	4.89

The record that follows has no pKd shown yet.
Quickly give me recorded pKd for Ac-PLPPPLPKKILTRTQSLPTRR-NH2 [PEAK3^tandem peptide, non-phosphorylated (residues 54-74)]
6.22
